tested on: SF-268 (CNS cancer); assay: MTT cytotoxicity assay, SF-268 cells; type: cell-based, human; settings: Homo sapiens, SF-268, 72 h, SF268 cells, c 2.00 μM, triplicate values; read-out: cell inhibition
# inhibition at 2 µM >= 10% gives class 1, anything below gives class 0

compound	qualitativeLabel
CC(=O)OC(C)C(C)=CC=CC1(C)OC(=O)C(C)C1O (stereo not drawn) [compound 1, diaportone A]	class 0
COc1cccc2c1C(=O)c1c(O)c3c(c(O)c1C2=O)C[C@@](O)(C(=O)CO)C[C@@H]3O[C@H]1C[C@H](N)[C@H](O)[C@H](C)O1 [Adriamycin, reference compound]	class 1
CC(C)[C@@H](C)/C=C/[C@@H](C)[C@H]1CCC(=O)[C@]23CC(=O)C4=CC(=O)CC[C@]4(C)[C@H]2CC[C@]13C [compound 7, dankasterone A]	class 1
CC(C)[C@@H](C)/C=C/[C@@H](C)C1CCC2C3=CC(=O)OC4=CC(=O)CC[C@]4(C)C3CC[C@@]21C (stereo partly drawn) [compound 9, fortisterol]	class 1
CC(C)[C@@H](C)C=C[C@@H](C)[C@H]1CC[C@@]2(O)C3=CC(=O)C4=CC(=O)CC[C@]4(C)[C@H]3CC[C@]12C [compound 8]	class 1

Kindly consider the entry below.
hey, is inhibition at 2 µM for this one >= 10%? CCCC(O)C1=C(C)C(=O)CC1C (stereo not drawn) [compound 4, phomotenone] class 0
